Organism: Cavia porcellus
Experiment: Inhibition of LTE4 (8 nM) induced contraction of guinea pig tracheal spirals at a concentration of 3.3 uM
Format: functional, Trachea
Reported Inhibition by item:
property.name: Inhibition

INSERT INTO assay_data (smiles_notation, property_name, value_observed) VALUES
  ('CCCCOC(=O)Nc1ccc2c(C)c(C)n(Cc3ccc(C(=O)O)cc3OC)c2c1', 'Inhibition', '81%'),
  ('COc1cc(C(=O)O)ccc1Cn1ccc2ccc(C(=O)NCC3CCCC3)cc21', 'Inhibition', '45%'),
  ('COc1cc(C(=O)O)ccc1Cn1ccc2ccc(C(=O)OCC3CCCC3)cc21', 'Inhibition', '10%'),
  ('COc1cc(C(=O)O)ccc1Cc1nn(C)c2ccc(C(=O)NCC3CCCC3)cc12', 'Inhibition', '37%'),
  ('CCCCOC(=O)Nc1ccc2cc(C)n(Cc3ccc(C(=O)O)cc3OC)c2c1', 'Inhibition', '41%');

* * *

Species: Cavia porcellus
Assay: Dissociation constant on guinea pig tracheal spirals utilizing LTE4 as agonist
Conditions: Trachea
Quick list: log10(Kb) per entry.
property.name: log10(Kb) (log10 of the value in nM)

INSERT INTO results (molecule, value_observed) VALUES
  ('COc1cc(C(=O)NS(=O)(=O)c2ccccc2)ccc1Cn1ccc2ccc(NC(=O)CC3CCCC3)cc21', -0.61),
  ('COc1cc(C(=O)NS(=O)(=O)c2ccccc2C)ccc1Cn1cc(CCC(=O)N2CCOCC2)c2ccc(C(=O)NCC3CCCC3)cc21', -0.54),
  ('CCCCOC(=O)Nc1ccc2c(Cl)cn(Cc3ccc(C(=O)O)cc3OC)c2c1', 1.97),
  ('COC(=O)CCc1cn(Cc2ccc(C(=O)NS(=O)(=O)c3ccccc3)cc2OC)c2cc(NC(=O)CC3CCCC3)ccc12', -0.56),
  ('COc1cc(C(=O)NS(=O)(=O)c2ccccc2)ccc1Cn1cc(C(C)=O)c2ccc(NC(=O)OC3CCCC3)cc21', -0.91),
  ('COc1cc(C(=O)NS(=O)(=O)c2ccccc2C)ccc1Cn1cc(C)c2ccc(NC(=O)CC3CCCC3)cc21', -0.34),
  ('COc1cc(C(=O)NS(=O)(=O)c2ccccc2)ccc1Cn1cc(Cl)c2ccc(NC(=O)OC3CCCC3)cc21', -0.14),
  ('CNC(=O)CCc1cn(Cc2ccc(C(=O)NS(=O)(=O)c3ccccc3C)cc2OC)c2cc(C(=O)NCC3CCCC3)ccc12', -0.40),
  ('CNC(=O)CCc1cn(Cc2ccc(C(=O)NS(=O)(=O)c3ccccc3)cc2OC)c2cc(NC(=O)CC3CCCC3)ccc12', -1.71),
  ('COc1cc(C(=O)NS(=O)(=O)c2ccccc2C)ccc1Cn1cc(CC(C)C(=O)N(C)C)c2ccc(C(=O)NCC3CCCC3)cc21 (stereo not given)', -0.19),
  ('COc1cc(C(=O)O)ccc1Cn1ccc2ccc(NC(=O)CC3CCCC3)cc21', 1.32),
  ('COc1cc(C(=O)O)ccc1Cn1ccc2ccc(NC(=O)OC3CCCC3)cc21', 1.20),
  ('COc1cc(C(=O)NS(=O)(=O)c2ccccc2C)ccc1Cn1ccc2ccc(NC(=O)CC3CCCC3)cc21', -0.97),
  ('CCCCOC(=O)Nc1ccc2ccn(Cc3ccc(C(=O)O)cc3OC)c2c1', 2.19),
  ('COc1cc(C(=O)NS(=O)(=O)c2ccccc2)ccc1Cn1c2c(c3ccc(NC(=O)CC4CCCC4)cc31)CCCC2', 0.89),
  ('COc1cc(C(=O)NS(=O)(=O)c2ccccc2)ccc1Cn1ccc2ccc(C(=O)NCC3CCCC3)cc21', 1.15),
  ('COc1cc(C(=O)NS(=O)(=O)c2ccccc2)ccc1Cn1cc(CCC(=O)O)c2ccc(NC(=O)CC3CCCC3)cc21', -1.14),
  ('COc1cc(C(=O)NS(=O)(=O)c2ccccc2C)ccc1Cn1cc(CCC(=O)N2CCC(C)(C)CC2)c2ccc(C(=O)NCC3CCCC3)cc21', 0.65),
  ('COc1cc(C(=O)NS(=O)(=O)c2ccccc2)ccc1Cn1cc(CCC(N)=O)c2ccc(OCCC3CCCC3)cc21', 1.01),
  ('COc1cc(C(=O)NS(=O)(=O)c2ccccc2C)ccc1Cc1cn(C(C)C(=O)N(C)C)c2ccc(C(=O)NCC3CCCC3)cc12 (stereo not given)', 1.08),
  ('COc1cc(C(=O)NS(=O)(=O)c2ccccc2C)ccc1Cc1cn(C)c2ccc(NC(=O)CC3CCCC3)cc12', -0.61),
  ('COc1cc(C(=O)NS(=O)(=O)c2ccccc2C)ccc1Cc1cn(C)c2ccc(C(=O)NCC3CCCC3)cc12', 0.63),
  ('COc1cc(C(=O)NS(=O)(=O)c2ccccc2)ccc1Cn1ccc2ccc(NC(=O)OC3CCCC3)cc21', -0.54),
  ('COc1cc(C(=O)NS(=O)(=O)c2ccccc2C)ccc1Cn1cc(CCC(N)=O)c2ccc(NC(=O)CC3CCCC3)cc21', -1.02),
  ('CCCC(=O)c1cn(Cc2ccc(C(=O)NS(=O)(=O)c3ccccc3)cc2OC)c2cc(NC(=O)CC3CCCC3)ccc12', -0.30);

* * *

Organism: Cavia porcellus
Assay: Compound was evaluated for the displacement of [3H]LTD4 on guinea pig lung parenchymal membranes
Set-up: species or system Lung parenchyma
pKi: −log10 of the molar value.
Label Yes when pKi is at or above 9; anything below gets No.

INSERT INTO assay_data (compound, label) VALUES
  ('COc1cc(C(=O)NS(=O)(=O)c2ccccc2C)ccc1Cc1cn(C)c2ccc(C(=O)NCC3CCCC3)cc12', 'No'),
  ('CCN(CC)C(=O)CCn1cc(Cc2ccc(C(=O)NS(=O)(=O)c3ccccc3C)cc2OC)c2cc(C(=O)NCC3CCCC3)ccc21', 'Yes'),
  ('COc1cc(C(=O)NS(=O)(=O)c2ccccc2C)ccc1Cn1cc(C)c2ccc(C(=O)NCC3CCCC3)cc21', 'No'),
  ('COc1cc(C(=O)NS(=O)(=O)c2ccccc2C)ccc1Cn1cc(CC(C)C(=O)N(C)C)c2ccc(C(=O)NCC3CCCC3)cc21 (stereo not drawn)', 'No'),
  ('CCN(CC)C(=O)/C=C/c1cn(Cc2ccc(C(=O)NS(=O)(=O)c3ccccc3C)cc2OC)c2cc(C(=O)NCC3CCCC3)ccc12', 'No'),
  ('COc1cc(C(=O)NS(=O)(=O)c2ccccc2C)ccc1Cc1cn(C)c2ccc(NC(=O)CC3CCCC3)cc12', 'Yes');

* * *

Assay: Negative logarithm of the molar dissociation constant
Type: ADME
Listed here are molecules together with their documented pKB.
property.name: pKB

INSERT INTO results (smiles_notation, value_observed) VALUES
  ('COc1cc(C(=O)NS(=O)(=O)c2ccccc2)ccc1Cc1cn(C)c2ccc(NC(=O)OC3CCCC3)cc12', 9.69),
  ('COc1cc(C(=O)O)ccc1Cc1cn(C)c2ccc(NC(=O)OC3CCCC3)cc12', 7.84),
  ('COc1cc(C(=O)O)ccc1Cc1c[nH]c2ccc(NC(=O)OC3CCCC3)cc12', 7.32),
  ('CCCn1cc(Cc2ccc(C(=O)O)cc2OC)c2cc(NC(=O)OC3CCCC3)ccc21', 7.72),
  ('COc1cc(C(=O)O)ccc1Cc1cn(C2CCCC2)c2ccc(NC(=O)OC3CCCC3)cc12', 7.67),
  ('COc1cc(C(=O)NS(=O)(=O)c2ccccc2)ccc1Cc1c[nH]c2ccc(NC(=O)OC3CCCC3)cc12', 9.84),
  ('CCCn1cc(Cc2ccc(C(=O)NS(=O)(=O)c3ccccc3)cc2OC)c2cc(NC(=O)OC3CCCC3)ccc21', 8.44),
  ('COc1cc(C(=O)NS(=O)(=O)c2ccccc2)ccc1Cc1cn(C2CCCC2)c2ccc(NC(=O)OC3CCCC3)cc12', 7.84);
